The reported measurements were obtained from ChEMBL document CHEMBL5032505.

Test: Tmax in Swiss albino mouse at 10 mg/kg, ip measured upto 24 hrs by LC-MS analysis
Type: ADME, organism-based
Conditions: in vivo
Observed property: Tmax

{"Mol": "O=C(O)Cn1nncc1CO[C@@H](C(=O)O)[C@@H](OCc1cnnn1CC(=O)O)C(=O)O", "Observed property": "Tmax", "Reported measurement": "1 h"}

====

Molecular target: Prostaglandin G/H synthase 1 (Ovis aries, UniProt P05979)
Sequence (P05979 whole entry): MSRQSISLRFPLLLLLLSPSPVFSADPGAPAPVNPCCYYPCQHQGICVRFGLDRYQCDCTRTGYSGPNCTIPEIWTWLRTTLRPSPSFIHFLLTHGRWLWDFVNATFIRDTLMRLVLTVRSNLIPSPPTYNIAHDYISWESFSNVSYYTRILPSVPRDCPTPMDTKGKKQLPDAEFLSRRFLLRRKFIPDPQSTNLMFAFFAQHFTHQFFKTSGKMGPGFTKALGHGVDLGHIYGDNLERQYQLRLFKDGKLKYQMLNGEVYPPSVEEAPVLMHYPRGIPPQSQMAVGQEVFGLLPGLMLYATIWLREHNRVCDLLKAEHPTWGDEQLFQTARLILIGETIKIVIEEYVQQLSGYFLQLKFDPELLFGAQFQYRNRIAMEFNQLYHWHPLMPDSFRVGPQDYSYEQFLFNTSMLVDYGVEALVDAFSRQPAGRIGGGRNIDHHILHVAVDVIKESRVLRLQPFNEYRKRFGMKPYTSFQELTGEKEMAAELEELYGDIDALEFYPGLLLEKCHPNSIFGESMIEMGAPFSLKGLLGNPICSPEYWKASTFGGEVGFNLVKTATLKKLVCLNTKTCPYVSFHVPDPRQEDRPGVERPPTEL
Observed property: IC50 (µM)

{"Compound": "COC(=O)[C@H](Cc1ccc(O)cc1)n1nncc1COc1ccc2ccccc2c1-c1c(OCc2cnnn2[C@@H](Cc2ccc(O)cc2)C(=O)OC)ccc2ccccc12", "Result units": "µM", "Comparative sign": ">", "Reported measurement": 10}
{"Compound": "CCOC(=O)[C@H](O)[C@@H](OCc1cnnn1[C@@H](Cc1ccc(O)cc1)C(=O)OC)C(=O)OCC", "Result units": "µM", "Comparative sign": "=", "Reported measurement": 80}
{"Compound": "CC1(C)Cc2c(-c3ccccc3)c(-c3ccc(Cl)cc3)c(CC(=O)O)n2C1 [LICOFELONE]", "Result units": "µM", "Comparative sign": "=", "Reported measurement": 0.21}
{"Compound": "CCOC(=O)[C@H](O)[C@@H](OCc1cnnn1[C@@H](Cc1ccccc1)C(=O)OC)C(=O)OCC", "Result units": "µM", "Comparative sign": "=", "Reported measurement": 55}

====

Biological target: Albumin (Homo sapiens, UniProt P02768)
Sequence (P02768 whole entry): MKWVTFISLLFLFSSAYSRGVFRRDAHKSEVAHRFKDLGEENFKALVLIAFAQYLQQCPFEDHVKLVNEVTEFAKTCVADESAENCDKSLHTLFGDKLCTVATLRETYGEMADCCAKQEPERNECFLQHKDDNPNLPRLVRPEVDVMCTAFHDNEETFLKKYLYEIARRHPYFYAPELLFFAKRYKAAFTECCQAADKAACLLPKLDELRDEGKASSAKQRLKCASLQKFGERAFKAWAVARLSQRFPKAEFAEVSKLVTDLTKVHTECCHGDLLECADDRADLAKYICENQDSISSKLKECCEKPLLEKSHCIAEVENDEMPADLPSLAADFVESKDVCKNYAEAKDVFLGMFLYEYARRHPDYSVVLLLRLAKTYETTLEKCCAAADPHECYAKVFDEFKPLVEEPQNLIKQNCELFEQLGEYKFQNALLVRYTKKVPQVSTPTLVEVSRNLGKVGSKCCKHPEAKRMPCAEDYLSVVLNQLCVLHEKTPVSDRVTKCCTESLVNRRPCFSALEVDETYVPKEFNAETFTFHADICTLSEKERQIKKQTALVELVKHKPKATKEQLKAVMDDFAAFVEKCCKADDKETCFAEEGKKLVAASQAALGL
Test: Binding affinity to HSA assessed as change in entropy by isothermal titration calorimetry
Observed property: TdeltaS (kcal/mol)

{"Mol": "O=C(O)Cn1nncc1CO[C@@H](C(=O)O)[C@@H](OCc1cnnn1CC(=O)O)C(=O)O", "Assay target": "Albumin (Homo sapiens, UniProt P02768)", "Reported measurement": -258}

====

Assay: Inhibition of soybean LOX using arachidonic acid as substrate incubated for 5 mins
Set-up: species or system Glycine max

{"Mol": "CCOC(=O)Cn1nncc1COc1ccc2ccccc2c1-c1c(OCc2cnnn2CC(=O)OCC)ccc2ccccc12", "Result units": "µM", "IC50": 11}
{"Mol": "COC(=O)[C@H](CO)n1nncc1COc1ccc2ccccc2c1-c1c(OCc2cnnn2[C@@H](CO)C(=O)OC)ccc2ccccc12", "Result units": "µM", "IC50": 6}
{"Mol": "CCOC(=O)[C@H](OCc1cnnn1[C@@H](Cc1ccccc1)C(=O)OC)[C@@H](OCc1cnnn1[C@@H](Cc1ccccc1)C(=O)OC)C(=O)OCC", "Result units": "µM", "IC50": 0.09}
{"Mol": "CCOC(=O)[C@H](O)[C@@H](OCc1cnnn1[C@@H](Cc1ccc(O)cc1)C(=O)OC)C(=O)OCC", "Result units": "µM", "IC50": 12}

====

Biological target: Albumin (Homo sapiens)
Assay: Binding affinity to HSA assessed as association constant at equilibrium by isothermal titration calorimetry

{"Mol": "O=C(O)Cn1nncc1CO[C@@H](C(=O)O)[C@@H](OCc1cnnn1CC(=O)O)C(=O)O", "Ka, M⁻¹": 11800}

====

The next entries give measured IC50 for Prostaglandin G/H synthase 1 (Ovis aries, UniProt P05979).
Observed property: IC50 (µM)

{"Mol": "CCOC(=O)Cn1nncc1CO[C@@H](C(=O)OCC)[C@@H](O)C(=O)OCC", "Observed property": "IC50", "Result units": "µM", "Reported measurement": 95}
{"Mol": "O=C1NC(=O)C(=Cc2cn(C[C@H](O)COc3cc(O)c4c(=O)cc(-c5ccccc5)oc4c3)c3ccccc23)C(=O)N1", "Observed property": "IC50", "Result units": "µM", "Reported measurement": 0.34}
{"Mol": "COC(=O)[C@H](Cc1c[nH]c2ccccc12)n1nncc1COc1ccc2ccccc2c1-c1c(OCc2cnnn2[C@@H](Cc2c[nH]c3ccccc23)C(=O)OC)ccc2ccccc12", "Observed property": "IC50", "Result units": "µM", "Reported measurement": 90}
{"Mol": "CCOC(=O)[C@H](OCc1cnnn1[C@@H](CO)C(=O)OC)[C@@H](OCc1cnnn1[C@@H](CO)C(=O)OC)C(=O)OCC", "Observed property": "IC50", "Result units": "µM", "Reported measurement": 54}

====

Molecular target: Albumin (Homo sapiens)
Experiment: Binding affinity to HSA assessed as change in enthalpy by isothermal titration calorimetry

{"Mol": "O=C(O)Cn1nncc1CO[C@@H](C(=O)O)[C@@H](OCc1cnnn1CC(=O)O)C(=O)O", "deltaH (kcal/mol)": -264}
